B1: library; a variant is named by its letters at N, in order (parent)
chain: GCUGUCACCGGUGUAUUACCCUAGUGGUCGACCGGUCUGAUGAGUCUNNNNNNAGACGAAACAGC

variants of: B1; assay: normalized RNA/DNA level with ligand (relative to sTRSVctl = 100) (log10 (% of sTRSVctl)); ligand: hypoxanthine (xanthine aptamer); higher = less ribozyme self-cleavage, higher mRNA level; settings: ligand concentration (+) RNA-Seq: 5 mM, HEK293T, reporter: mCherry (pCS4076), ligand present: yes
Examples of variants with documented normalized RNA/DNA level with ligand (log10) follow.
Measurement Kind: normalized RNA/DNA level with ligand (log10)

mut=AGCAAA reported_result=1.92
mut=CACCGU reported_result=1.93
mut=UCCAAG reported_result=1.9
mut=UAACCA reported_result=1.94
mut=AGAAAA reported_result=1.89
mut=UAUUUA reported_result=1.93
mut=AUACGU reported_result=1.91
mut=GGGAAA reported_result=1.87
mut=AAACCA reported_result=1.92
mut=GGUAUU reported_result=1.97
mut=GCGAUA reported_result=1.88
